Where do these numbers come from? They come from paper PMC11168086.

tested on: HeLa (cervical cancers) cells; experiment: MTT antiproliferative assay, HeLa; assay type: cell-based, human
metric_name: Lipophilic efficiency (LipE = pIC50 – logP)

* C[C@@H]1CC[C@@H]([C@@](O)(CNCc2ccccc2)COCc2ccccc2)[C@H](OCc2ccccc2)C1 [Compound 34b] | −1.11
* C[C@@H]1CC[C@@H]([C@](O)(CNCc2ccccc2)COCc2ccccc2)[C@H](OCc2ccccc2)C1 [Compound 34a] | −1.16
* COc1ccc(CNC[C@](O)(COCc2ccc(F)cc2)[C@@H]2CC[C@@H](C)C[C@H]2OCc2ccc(F)cc2)cc1 [Compound 46a] | −1.33
* COc1ccccc1CNC[C@@](C)(O)[C@@H]1CC[C@@H](C)C[C@H]1OCc1ccccc1 [Compound 12a] | −0.05
* COc1ccc(CNC[C@](O)(COCc2ccc(OC)cc2)[C@@H]2CC[C@@H](C)C[C@H]2OCc2ccc(OC)cc2)cc1 [Compound 52a] | −0.57
* COc1cccc(CNC[C@@](C)(O)[C@@H]2CC[C@@H](C)C[C@H]2OCc2ccccc2)c1 [Compound 11a] | −0.19
* C[C@@H]1CC[C@@H]([C@](O)(CNCc2ccc(F)cc2)COCc2ccc(F)cc2)[C@H](OCc2ccc(F)cc2)C1 [Compound 45a] | −1.23
